test system: GSH (glutathione); experiment: physchem; settings: buffer, pH 7.4
REPORTED_PROPERTY: half-life at 250 μM

[[record]]
smiles_string = "Cn1cc[n+](C)c1C#N"
reported_property = "half-life at 250 μM"
value = "> 2880 min"


Here's the next entry for you.
// query Which half-life at 250 μM value is on record for N#Cc1ccccn1 ?
// result > 2880 min

* * *

Readings of IC50 for the listed compounds
Molecular target: HDAC8 Cys102Ser/Cys153Ser/Cys28Ser (Homo sapiens, UniProt Q9BY41, C102S/C153S/C28S)
Construct: made in house
Sequence (Q9BY41 1-377 C28S/C102S/C153S): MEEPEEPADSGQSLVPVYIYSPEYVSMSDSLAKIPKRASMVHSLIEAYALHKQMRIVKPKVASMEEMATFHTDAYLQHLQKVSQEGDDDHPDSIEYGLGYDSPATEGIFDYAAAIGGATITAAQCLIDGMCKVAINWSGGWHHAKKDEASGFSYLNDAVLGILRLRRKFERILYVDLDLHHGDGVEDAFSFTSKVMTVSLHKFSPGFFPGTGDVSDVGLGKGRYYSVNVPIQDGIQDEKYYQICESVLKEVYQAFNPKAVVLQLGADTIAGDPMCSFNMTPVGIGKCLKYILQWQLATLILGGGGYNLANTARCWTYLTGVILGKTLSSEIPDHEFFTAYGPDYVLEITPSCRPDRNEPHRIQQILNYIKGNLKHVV
Test: HDAC8 mutant biochemical assay
Settings: read-out: IC50 [μM] @ 100 nM HDAC8: B Cys102Ser/Cys153Ser/Cys28Ser, 1 h preincubation

[[record]]
compound = "C#Cc1c[n+](C)ccn1"
reported_property = "IC50"
value = "106 µM"

[[record]]
compound = "C[n+]1cccnc1I"
reported_property = "IC50"
value = "62 µM"

[[record]]
compound = "C[n+]1cncc(Br)c1"
reported_property = "IC50"
value = "> 130 µM"

[[record]]
compound = "C[n+]1ccc(I)cc1"
reported_property = "IC50"
value = "> 130 µM"

[[record]]
compound = "C#Cc1nccc[n+]1C"
reported_property = "IC50"
value = "> 130 µM"


// query Under HDAC8 Cys102Ser/Cys153Ser/Cys28Ser (Homo sapiens, UniProt Q9BY41, C102S/C153S/C28S): IC50 value of C#Cc1cc[n+](C)cc1 ?
// result 67 µM

// query And the next one, C[n+]1cncc(I)c1 ?
// result > 130 µM

// query And the next one, C[n+]1cccnc1Br [D2+] ?
// result > 130 µM

// query And the next one, C[n+]1cccnc1Cl [D1+] ?
// result > 130 µM

// query And the next one, C[n+]1ccccc1I ?
// result > 130 µM

Origin of the recorded values: paper PMC10788917
